The compounds listed here are annotated with their composite z-score.
- tgt: Torsin-1A (Homo sapiens) (UniProt O14656)
- Sequence (O14656 whole entry, looked up): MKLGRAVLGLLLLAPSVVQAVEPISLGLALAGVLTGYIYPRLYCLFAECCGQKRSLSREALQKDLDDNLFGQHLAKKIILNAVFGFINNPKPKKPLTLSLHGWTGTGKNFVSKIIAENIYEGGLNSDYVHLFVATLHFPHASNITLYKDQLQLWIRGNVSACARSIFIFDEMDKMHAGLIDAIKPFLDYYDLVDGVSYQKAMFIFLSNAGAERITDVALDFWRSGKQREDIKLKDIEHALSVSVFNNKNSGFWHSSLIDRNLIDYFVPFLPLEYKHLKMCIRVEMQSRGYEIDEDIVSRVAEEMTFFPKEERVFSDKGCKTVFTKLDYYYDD
- assay: small-molecule binders of mutant TOR1A in lysate, primary screen, cell lysate, small-molecule microarray, COS7 lysate, 635/667 nm fluorescence (AID 1150);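 also: score pools 667 nm emission and signal to noise measuring lysate protein binding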
- conditions: COS7 hTOR1A mutant lysate, 635 nm fluorescence, higher = more signal
Returns: the value as a bare number; no unit string appended.

The examples below pair each entry with its known result.
compound: O=C1[C@]2(CO)C=C(Br)[C@@H](C[C@@H]2c2ccccc2)[C@@]12CO2
composite z-score: 0.0294
//
compound: Cc1cc(C)cc(N2C(=O)CS(=O)(=O)C2c2cccc([N+](=O)[O-])c2)c1 (configuration not stated)
composite z-score: 0.897
//
compound: COCC(=C=CC[C@H](O)c1ccc(OCCO)cc1)C[C@H](O)c1cc(Cl)cc(Cl)c1O
composite z-score: 0.3
//
compound: NC(=O)NCC#Cc1ccc2c(c1)[C@]1(C(=O)N2)[C@H](C(=O)N2CCCCCCC2)[C@H]2C(=O)O[C@H](c3ccccc3)[C@H](c3ccccc3)N2[C@@H]1c1ccc(OCCO)cc1
composite z-score: 0.304
//
compound: C[C@]1(C(=O)NCc2ccccc2)c2ccccc2C(=O)N(Cc2ccc(OC(F)(F)F)cc2)[C@H]1c1ccc(CO)cc1
composite z-score: 0.223

I am curious: what composite z-score value has been reported for CCCCCN1CC=CC23O[C@@H]4/C=C\CCC(C)OC(=O)C4[C@H]2C(=O)N(CCCCCO)[C@@H]3C1=O (some centres not stated) ? 0.815

I have this compound here, COCCOC(=O)N1C(=O)[C@@]2(c3cc(C#CCNC(N)=O)ccc31)[C@H](C(=O)N1CCN(c3ncccn3)CC1)[C@H]1C(=O)O[C@H](c3ccccc3)[C@H](c3ccccc3)N1[C@@H]2c1ccccc1OCCO , and I need its recorded composite z-score. 0.416
